- Tested on: UACC-257 melanoma
- assay_text: NCI tumour cell line growth inhibition, 48 h
property_name: TGI

> print(dat)
                                   molecule    result
1  C[C@]12CCC(=O)C(O)=C1CC[C@@H]1C2CC[C@]2(C)Nc3c(cnn3-c3ccccc3)CC12 (some centres undefined)  > 100 µM
2  CN(C)CC1CCCC(CN(C)C)C1=NOC(=O)c1ccccc1 (centres undefined)  > 100 µM
3  O=C1CCCC1C(O)(C(F)(F)F)C(F)(F)F (centres undefined)  > 100 µM
4         Oc1ccc(Cc2nccc3cc(O)c(O)cc23)cc1O   87.6 µM

Consider the following items and state reported TGI for each.
1. O=C(NC1C=Nc2ccc([N+](=O)[O-])cc2NC1=O)c1cc(Cl)cc([N+](=O)[O-])c1 (centres undefined)
2. COc1cc(Cl)cc(-c2nn(-c3cccc(NC(=O)Nc4cc(C(F)(F)F)cc(C(F)(F)F)c4)c3)cc2-c2ccncc2)c1
3. CC(=O)OCC(=O)[C@@]12OC(C)(C)O[C@@H]1C[C@H]1[C@@H]3CC=C4C[C@@H](O)CC[C@]4(C)[C@H]3CC[C@@]12C
4. C[N+]1(C)C/C(=C\c2ccccc2)C(=O)/C(=C/c2ccccc2)C1
5. O=C(NNCc1ccco1)c1cc2ccccc2[nH]1

1. > 100 µM
2. 2.68 µM
3. > 100 µM
4. > 100 µM
5. > 100 µM

----------
- Tested on: K-562 leukemia
- assay_text: NCI tumour cell line growth inhibition, 48 h
property_name: TGI

Consider the worked cases shown below.
> print(dat)
                                   compound  property.name    result
1  O=C1C2C(c3ccccc3)NC(c3ccccc3)C1C(c1ccccc1)NC2c1ccccc1 (configuration not stated)            TGI  > 100 µM
2  Cc1cc2sc(C)[n+](CCCOS(=O)(=O)[O-])c2cc1C            TGI  > 100 µM
3  C/C(=N\NC(=S)N1CCN(C)CC1)c1nc2ncccc2[nH]1            TGI  > 100 µM
4        C=CCN1C(=O)/C(=C/c2ccc(C)cc2)NC1=S            TGI  > 100 µM
5       CCOC(=O)/C(=C\c1cccs1)P(=O)(OCC)OCC            TGI  > 100 µM

Please state, for each entry, its recorded TGI.
1. CC(C)(C)c1ccc(-n2c3nc(=O)n(-c4ccccc4CO)c(=O)c-3cc3ccccc32)cc1
2. O=C1CCCC1C(O)(C(F)(F)F)C(F)(F)F (configuration not stated)
3. N#CCCN(c1ccc(C=Nc2ccccc2Cl)cc1)S(=O)(=O)c1ccccc1
4. CN(C)CC1CCCC(CN(C)C)C1=NOC(=O)c1ccccc1 (configuration not stated)
5. COc1cc(-n2cc(-c3ccc(Cl)cc3)nc2SCc2cccc(C#N)c2)cc(OC)c1OC
6. CN(C)CCCNc1c(C#N)[n+]([O-])c2cc(Cl)ccc2[n+]1[O-]
7. C[C@]12CCC(=O)C(O)=C1CC[C@@H]1C2CC[C@]2(C)Nc3c(cnn3-c3ccccc3)CC12 (some centres not stated)

["> 100 µM", "> 100 µM", "> 100 µM", "> 100 µM", "> 100 µM", "20.8 µM", "> 100 µM"]

For each of the compounds below, state TGI.
1. C=C1C(=O)OC2C=C(CCC(C)=O)C(C)C(OC(C)=O)CC12 (configuration not stated)
2. O=C(c1ccccc1)N1OCCC1Nc1ccc(Br)cc1 (configuration not stated)

44 µM
> 10 µM

----------
For each entry below, report its log10 TGI value.
- Test system: 786-0 renal
- assay_text: NCI tumour cell line growth inhibition, 48 h
Hey, these are logged values: log10 of TGI, µM being the unit before logging.

> print(dat)
                                   compound  quantitative.result
1  NC(N)=N/N=C/c1c(-c2cc([N+](=O)[O-])c(Cl)cc2Cl)nc2sccn12                 0.49
2  COC(=O)C(Cc1ccc(Oc2cc(CC(NC(=O)c3ccccc3)C(=O)OC)ccc2OC)cc1)NC(=O)c1ccccc1 (stereo not drawn)                 1.48

Give measured log10 TGI for every item shown.
1. COc1cccc2c1/c(=C/c1ccc(N(C)C)cc1)c1cc(-c3ccccc3)[n+](C)n12
2. CCCCCCCCCCCCOC1C(C(COC2OC(C3COC(C)(C)O3)C3OC(C)(C)OC23)NC(=O)NS(=O)(=O)c2ccccc2)OC2OC(C)(C)OC21 (stereo not drawn)
3. CC(C)c1c(O)ccc2c1CCC1C(C)(C)CCCC21C (stereo not drawn)
4. CC1(C)C/C(=N/O)c2c(nc3ccc4ccccc4c3c2-c2ccc(Cl)cc2)C1
5. O=P(CCCCP(=O)(c1ccccc1)c1ccccc1)(c1ccccc1)c1ccccc1.[Cl][Sn]([Cl])([c]1ccccc1)[c]1ccccc1
6. COC(=O)C1=C(C(=O)OC)SC(=C(Cl)C(=S)Nc2ccccc2O)S1

1. 0.04
2. 1.06
3. 1.51
4. 1.18
5. 0.39
6. 1.00

----------
- Test system: COLO 205 colon
- assay_text: NCI tumour cell line growth inhibition, 48 h
Where a SMILES comes first, the peptide text is derived from it. The star is where a group is joined. Ethyl(2-NMe3+) = C[N+](C)(C)CC*; Boc = CC(C)(C)OC(=O)*
property_name: TGI

Answered cases to consult:
compound	TGI
O=[N+]([O-])c1cc2c(c([N+](=O)[O-])c1)NCc1ccccc1O2	> 100 µM
Cc1cc(NCc2cc(Nc3ccnc4cc(Cl)ccc34)ccc2F)nc(N2CCN(C)CC2)n1	3.66 µM
COc1cccc(-c2nc3ccccc3c(=O)[nH]2)c1OC	> 100 µM
O=C(c1ccccc1)[C@@H]1C[C@H](Sc2ccccc2)c2cc(Cl)ccc2N1	> 100 µM
Nc1c(C(=O)Nc2ccc(C3=NCCN3)cc2)cccc1C(=O)Nc1ccc(C2=NCCN2)cc1	> 100 µM
CN(N)/N=N/c1nc[nH]c1[N+](=O)[O-]	> 100 µM
CC(NC(=O)C(Cc1ccc(OCC[N+](C)(C)C)cc1)NC(=O)OC(C)(C)C)C(=O)NC(Cc1ccccc1)C(=O)NCC(N)=O (stereo unspecified) (Boc-Y(Ethyl(2-NMe3+))AFG-NH2; configuration not given here)	> 100 µM
CC(C)COCC(CN(Cc1ccccc1)c1ccccc1)N1CCCC1 (stereo unspecified)	3.52 µM

I need TGI for every entry listed below, if you could help.
1. Cn1c(Cl)cn2c3nc4ccccc4nc3c(=O)c(C#N)c12
2. CN(C)CC1C(=O)O[C@H]2[C@H]1CC/C(COC(=O)c1cc3ccccc3[nH]1)=C\CC[C@@]1(C)O[C@@H]21 (stereo partly specified)
3. COc1cc(Cl)cc(-c2nn(-c3cccc(NC(=O)Nc4cc(C(F)(F)F)cc(C(F)(F)F)c4)c3)cc2-c2ccncc2)c1
4. COc1ccc(NC(=O)/C(=N/NC(N)=S)C2C(=O)NC(=S)NC2=O)c(OC)c1
5. CC(NCCC(=O)N(CCC(=O)N(CCC(=O)N(CCC(=O)N(CCC(=O)N(CCC(=O)N(CCC(=O)N(CCC(=O)N(CCC(=O)N(CCC(=O)O)[C@H](C)c1ccccc1)[C@H](C)c1ccccc1)[C@H](C)c1ccccc1)[C@H](C)c1ccccc1)[C@H](C)c1ccccc1)[C@H](C)c1ccccc1)[C@H](C)c1ccccc1)[C@H](C)c1ccccc1)[C@H](C)c1ccccc1)c1ccccc1 (stereo partly specified)
6. OC(c1cc(-c2ccc(Cl)cc2)nc2ccccc12)C1CCCCN1 (stereo unspecified)

1: > 100 µM; 2: 5.5 µM; 3: 1.97 µM; 4: > 100 µM; 5: 2.83 µM; 6: 3.19 µM

Lab note: each compound below needs its TGI filled in.
1. O=S(Nc1ccccc1)c1ccc(Cl)c(Cl)c1 (stereo unspecified)
2. COc1cc([C@H]2CC(=O)C[C@H](c3cc(OC)c(OC)c(OC)c3)C23C(=O)c2ccccc2C3=O)cc(OC)c1OC

1. > 100 µM
2. > 100 µM

----------
- Tested on: SF-295 CNS
- assay_text: NCI tumour cell line growth inhibition, 48 h
property_name: TGI

These solved cases illustrate the format of a correct answer.
compound	result
CC(C)(CN1CCCCC1)C(=O)/C=C/c1ccc(Cl)cc1	11.3 µM
O=C(O)NCC1CCCCC1 (tested in a mixture with another compound)	50.3 µM
O=[N+]([O-])c1cc2c(c([N+](=O)[O-])c1)NCc1ccccc1O2	> 100 µM
CNC(=O)CC1NC(=O)c2csc(n2)-c2ccc(-c3nc(C4=NC(C(=O)N5CCCC5C(N)=O)CO4)cs3)nc2-c2csc(n2)-c2csc(n2)C(C(C)C)NC(=O)CNC(=O)c2csc(n2)C(C(C)C)NC(=O)c2nc1sc2C (stereo not drawn)	> 25 µM
O=C(c1ccccc1)[C@@H]1C[C@H](Sc2ccccc2)c2cc(Cl)ccc2N1	92.5 µM

Hi there! I need TGI for each item below, if you can.
1. COC(=O)CN1SC2(SC13C(C)(C)C(=O)C3(C)C)C(C)(C)C(=O)C2(C)C
2. O=S(Nc1ccccc1)c1ccc(Cl)c(Cl)c1 (stereo not drawn)
3. COC(=O)c1cc2cc3c(c(O)c2c(=O)o1)O[C@@]1(Oc2c(O)c4c(c(O)c2[C@H]1OC1CC(OC)C(O)C(C)O1)C(=O)C=C(OC)C4=O)[C@H](O)C3 (stereo partly drawn)

1. > 100 µM
2. 50.1 µM
3. > 29.6 µM
